These measurements were taken from ChEMBL document CHEMBL5550094.

# assay_info: Anti-necroptosis activity against TNF-alpha induced human Jurkat-FADD-/- cells pretreated for 30 mins followed by TNF-alpha addition and further incubated overnight by CellTiter-Glo 2.0 assay
# Assay type: functional, cell-based
The following compounds are listed with their measured IC50 values.

[
  {
    "substance_smiles": "C[C@@H](Oc1cc(-c2cnn(C3CCNCC3)c2)cnc1N)c1c(Cl)ccc(F)c1Cl",
    "IC50": "> 40 µM"
  },
  {
    "substance_smiles": "Nc1nccnc1C(=O)O[C@@H](C(=O)Nc1ccc(F)cc1)c1ccccc1",
    "IC50": "> 40 µM"
  }
]

###

# subject_of_test: Receptor-interacting serine/threonine-protein kinase 3 (Homo sapiens, UniProt Q9Y572)
# Sequence (Q9Y572 whole entry): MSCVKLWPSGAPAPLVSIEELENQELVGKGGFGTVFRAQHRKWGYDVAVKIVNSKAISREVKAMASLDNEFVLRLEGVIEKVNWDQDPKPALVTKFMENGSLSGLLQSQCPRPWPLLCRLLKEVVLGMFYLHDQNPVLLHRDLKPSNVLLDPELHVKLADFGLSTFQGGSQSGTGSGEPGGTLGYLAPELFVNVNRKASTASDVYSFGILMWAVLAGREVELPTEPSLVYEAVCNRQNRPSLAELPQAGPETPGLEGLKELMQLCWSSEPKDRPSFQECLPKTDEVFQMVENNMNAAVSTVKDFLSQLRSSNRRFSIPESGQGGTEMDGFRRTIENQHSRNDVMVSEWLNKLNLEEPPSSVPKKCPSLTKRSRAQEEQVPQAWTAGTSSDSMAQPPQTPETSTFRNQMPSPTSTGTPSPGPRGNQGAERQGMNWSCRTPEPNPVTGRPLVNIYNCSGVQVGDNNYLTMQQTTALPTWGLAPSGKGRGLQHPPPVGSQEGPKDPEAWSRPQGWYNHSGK
# assay_info: Binding affinity to RIPK3 (unknown origin) assessed as dissociation constant by displacement assay
pKd: −log10 of the molar value.
measure_name: pKd

[
  {
    "substance_smiles": "Nc1nccnc1C(=O)O[C@@H](C(=O)Nc1ccc(F)cc1)c1ccccc1",
    "measure_name": "pKd",
    "assay_value": "< 4.52"
  }
]
